- protocolDetails: cumulative food intake, lean mice (Model A), BioDaQ system
- Type: in vivo
- testSettings: Table 2; lean male C57BL/6 mice, 1 mg/kg s.c., 6 h time point, relative to vehicle; negative = reduction
Where no end group is shown, it is not given here.
reportedMetric: % reduction in food intake, model A (%)
Reply numerically in %, unit not repeated.

# get_value(readout='% reduction in food intake, model A', item= H-PQPESPEGNASPEDWACYHAAVRHYVNLITRQRY-NH2 [Peptide 18] )
−17

Let us now turn to PKPEAPLSKQLEEEAVRYYASLRHYLNLVTRQRY-NH2 [Peptide 21]
−2

Let us now turn to H-PEPEHPGCDASPEDQNKYHASLRKYLNWVTRQRY-NH2 [Peptide 10]
−21

Let us now turn to PKPVAPGCDASPAELNRQYSDLRNYWNLVTRQRY-NH2 [Peptide 15]
−17

Let us now turn to H-IKPEAPLSKQLEEEAVRYYASLRHYLNLVTRQRY-NH2 [Peptide 2]
−12

Let us now turn to H-PKPEAPGEDASPKEWNRYYASLRKYLNWVTRQRY-NH2 [Peptide 3]
−30

Let us now turn to H-PKPEAPGCDASPEEWNRYYASLRKYLNWVTRQNY-NH2 [Peptide 1]
5

Let us now turn to H-PKPEAPGCDASPEEWNRYYASLRKYLNWVTRQHY-NH2 [Peptide 14]
24
